Provenance of the data: the supplement of paper PMC10567573

B1: LMNB1 (parent)
chain: LYKEELEQTYHAKLENARLSSEMN

# Variants of: B1
# protocol text: protein stability index of a GFP-peptide fusion (GPS, HEK-293T) (PSI 1-6); higher = more stable;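 further: lentivirally expressed fusions sorted by FACS into six bins by GFP to DsRed ratio, PSI derived from sequencing read proportions per bin multiplied by bin number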
# condition details: c terminus: a fixed tail appended
test readout: protein stability index
Number, no unit, nothing else.

Q. Which protein stability index reading was recorded for the variant E5S ?
A. 2.4

Q. Now try M23H .
A. 2.94

Q. Now try M23K .
A. 3.28

Q. Now try H11Q .
A. 4.24

Q. Now try L14K .
A. 5.64

Q. Now try L1V .
A. 2.75

Q. Now try E5W .
A. 1.37

Q. Now try H11R .
A. 2.88

Q. Now try A17H .
A. 3.52

Q. Now try Q8F .
A. 2.09

Q. Now try Y10A .
A. 4.25

Q. Now try K13E .
A. 4.33

Q. Now try Y10H .
A. 4.8

Q. Now try A12D .
A. 4.61

Q. Now try Y2N .
A. 3.46

Q. Now try Y2P .
A. 3.06

Q. Now try Y10T .
A. 4.66

Q. Now try K3S .
A. 2.65

Q. Now try L19D .
A. 4.25

Q. Now try K13M .
A. 2.48
